meta.source: PubChem BioAssay (NCATS)

assay: qHTS for Inhibitors of the Functional Ribonucleoprotein Complex (vRNP) of Lymphocytic Choriomeningitis Arenaviruses (LCMV): Viability assay - alamar blue signal for LCMV Primary Screen (AID 1347085); conditions: alamar blue viability counter-screen, LCMV vRNP screen cells; series mostly up to 57.5 µM; also: nearly all actives have a fitted effect of over 80% in size
Inconclusive results are not listed. The source made the active and inactive calls. Calls follow the shape of the full dose curve; tested in HEK293 reporter line.
Measured quantity: outcome

Check out these entries, answers already filled in.
CC(C)NC[C@@H](O)c1ccc(O)c(O)c1    inactive
CC(C)(OC1OC(CO)C(O)C(O)C1O)[C@H]1Oc2ccc3ccc(=O)oc3c2[C@H]1O (stereo partly specified)    inactive
O=c1ccc2ccc(O)c(O)c2o1    inactive
NCCNS(=O)(=O)c1cccc2c(Cl)cccc12    inactive
COc1cc2c(=O)c(-c3ccc(O)cc3)coc2cc1OC1OC(CO)C(O)C(O)C1O (stereo unspecified)    inactive

INPUT: Recorded outcome for CC[C@H](NC(=O)c1c(C)c(-c2ccccc2)nc2ccccc12)c1ccccc1 , please?
OUTPUT: inactive

INPUT: Also CC1=CCCC(C)(C)C12CCC(C)O2 (stereo unspecified) , if possible.
OUTPUT: inactive

INPUT: Also Cc1cnccn1 , if possible.
OUTPUT: inactive

INPUT: Also C=C1CCC2C(C)(C)[C@H](O)CC[C@@]2(C)[C@@H]1COc1cc(=O)oc2ccccc12 (stereo partly specified) , if possible.
OUTPUT: inactive

INPUT: Also O=C(O)CCC/C=C\C[C@@H]1[C@@H](/C=C/[C@H](O)C2Cc3ccccc3C2)[C@@H](F)C[C@@H]1O , if possible.
OUTPUT: inactive

INPUT: Also Nc1ccc(-c2nc3ccc(-c4nc5ccc(N)cc5[nH]4)cc3[nH]2)cc1 , if possible.
OUTPUT: inactive
